System: M14
Test: NCI tumour cell line growth inhibition, 48 h
The source made the active and inactive calls. Cut-off read from the data, not from the text of the source: active = GI50 up to about 1.1 µM and inactive = higher.
Hi there, use one of these labels in your reply, thanks! active, inactive

Called result for CC1OC(=O)C2CC3CCCCC3C(/C=C/C3CCCC(C)N3C)C12 (configuration not stated)
inactive

Called result for CCC1CN2CCc3cc(OC)c(OC)cc3C2CC1CC1c2cc(OC)c(OC)cc2CCN1C(=O)C(Cc1c[nH]c2ccccc12)NC(=O)OC(C)(C)C (configuration not stated)
inactive

Called result for `N=c1oc2cc(O)ccc2cc1C(=O)Nc1cccc2ccccc12`
inactive

Called result for `O=C(NCCN(CCNC(=O)c1cccc(=O)n1O)CCN(CCNC(=O)c1cccc(=O)n1O)CCNC(=O)c1cccc(=O)n1O)c1cccc(=O)n1O`
inactive

Called result for `CCOC(=O)/C(C(=O)Nc1cccc(Cl)c1)=C(/N)N1CCCC1`
inactive

Called result for `CCNc1cc2c3c(c1)CCCN3CCC2`
inactive

Called result for CC(C)(C)C1CCC2c3c([nH]c4ccccc34)C3C(=O)N(c4ccc(C(=O)O)cc4)C(=O)C3C2C1 (configuration not stated)
inactive

Called result for `Cn1cnc([N+](=O)[O-])c1Sc1nc(N)nc2c1ncn2[C@H]1C[C@H](O)[C@@H](CO)O1`
inactive

Called result for `Cc1cc2nc(O)c(CCC(=O)O)nc2cc1C`
inactive

Called result for Cc1ccc2nc(NC(=O)C(=O)C(C#N)c3nc4ccccc4s3)sc2c1 (configuration not stated)
inactive

Called result for CCC12CCC(O)C1N(C)CCC2Sc1ccccc1 (configuration not stated)
inactive

Called result for `Cc1ccc(S(=O)(=O)N2CCSCCSCCN(S(=O)(=O)c3ccc(C)cc3)CCN(S(=O)(=O)c3ccc(C)cc3)CC2)cc1`
inactive

Called result for CC1CC(c2ccc(Cl)c(Cl)c2)=Nc2ccccc2S1 (configuration not stated)
inactive

Called result for `CN(C)Cc1cc(C(C)(C)C)cc(C2CCCCC2)c1O`
inactive

Called result for `CC(C)OP(=O)(OC(C)C)C1=NN(c2ccc([N+](=O)[O-])cc2)C(P(=O)(OC(C)C)OC(C)C)=NN1c1ccc([N+](=O)[O-])cc1`
inactive

Called result for `CC(C)NC(=O)CN1CCN(C2=CC(=O)c3c(O)ccc(O)c3C2=O)CC1`
inactive

Called result for `Cc1cccc(N(CCC#N)S(=O)(=O)c2ccccc2)c1`
inactive

Called result for `Cc1c(Cl)cccc1/N=N/C(=O)NNc1cccc(Cl)c1C`
inactive

Called result for `CCSc1nnc(-c2ccccc2)nc1Cc1ccc(OC)cc1`
inactive

Called result for `O=c1[nH]c(=O)n([C@H]2CCCO2)cc1F`
inactive

Called result for Cc1nn(C(=O)Cc2ccccc2)c2c1C(c1ccc([N+](=O)[O-])cc1)SC(=N)N2 (configuration not stated)
inactive

Called result for `O=C1c2ccccc2C(=O)c2nc3c(O)cccc3cc21`
inactive

Called result for `O=C(/C=C/c1ccc(Cl)cc1)Oc1ccc(C=C2CCC/C(=C\c3ccc(OC(=O)/C=C/c4ccc(Cl)cc4)cc3)C2=O)cc1`
inactive

Called result for `O=C1c2cc([N+](=O)[O-])cc3cc([N+](=O)[O-])cc(c23)C(=O)N1CCCNCCNCCCN1C(=O)c2cc([N+](=O)[O-])cc3cc([N+](=O)[O-])cc(c23)C1=O`
active

Called result for `CCCCCCCCCCCC[S+](C)C`
inactive

Called result for `C/C(=N\Nc1nc2ccccc2[nH]1)c1ccc2ccccc2n1`
inactive

Called result for CC1=CC(=O)C(C)(C2=NC(C)(C)CO2)c2ccccc21 (configuration not stated)
inactive

Called result for `O=C(CCCc1ccccn1)c1ccccc1`
inactive

Called result for `Nc1nc(N)c2cc(-c3cc4ccccc4[nH]3)ccc2n1`
inactive

Called result for `O=C(NCO)NCOCn1c(=O)n(CO)c(=O)n(CO)c1=O`
inactive

Called result for `Cn1c(=N)n[n+]([O-])c2ccccc21`
inactive

Called result for `COC(=O)c1cc(CC(C)C)c2c(c1)[nH]c1ccccc12`
inactive

Called result for `C[n+]1cn(-c2ccc([N+](=O)[O-])cn2)c2ccccc21`
inactive

Called result for `C[C@]12CC[C@H](O)CC1=CC[C@@H]1[C@@H]2CC[C@]2(C)C(=O)[C@@H](N3CCOCC3)C[C@@H]12`
inactive

Called result for `Clc1ccc(Cl)c(SCCCN2CCNCC2)c1`
inactive

Called result for COP(=O)(OC)C12CCOCCN1c1ccccc1C2=O (configuration not stated)
inactive

Called result for `COC(=O)[C@@H]1CCc2nc3ccccc3c(=O)n21`
inactive

Called result for `Cc1cc(C)c2c(=O)cc(-c3ccccc3)[nH]c2c1`
inactive

Called result for `COC(=O)c1oc([N+](=O)[O-])c(-c2ccccc2)c1-c1ccccc1`
inactive

Called result for `Cc1ccc(C(=O)N/N=C(\N=N\c2ccccc2)c2ccc(N(CCC#N)CCC#N)cc2C)cc1`
inactive

Called result for C=C1C(=O)OC2/C=C(\C=O)CC/C=C(\C)C(O)C[C@@H]12 (some centres not stated)
inactive

Called result for c1ccc2c(c1)N=c1cc3c(cc1N2)=NC12CCCCC1CC1=C(CCCC1)N32 (configuration not stated)
inactive
